Listed here are molecules together with their documented viability, T/C.
# Tested on: 935938-334-R-J1-PDC complex spheroid viability
# Protocol Notes: Anticancer human tumor 935938-334-R-J1-PDC patient-derived small intestine adenocarcinoma cell line growth inhibition [POLQ]
# Conditions: second compound 1 µM; first compound 0.0316 µM; stronger effect = lower value

Molecule	Reading Unit	viability, T/C
O=C(Nc1ccc(O)c(NS(=O)(=O)c2ccc(F)cc2)c1)c1ccc(-c2ccccc2)cc1 + Nc1ccc(C#CCN(C(=O)Cc2ncc(C(F)(F)F)cc2C(F)(F)F)c2ccc(F)cc2)nn1	%	83.1
O=C(c1cc(Cc2n[nH]c(=O)c3ccccc23)ccc1F)N1CCN(C(=O)C2CC2)CC1 + Cc1cccc(N(C)C(=O)C2C(O)CCN2c2nc(C)cc(C(F)(F)F)c2C#N)c1	%	89.7
Cn1ncnc1[C@H]1c2n[nH]c(=O)c3cc(F)cc(c23)N[C@@H]1c1ccc(F)cc1 + COC1C(OC(N)=O)C(O)C(Oc2ccc3c(O)c(NC(=O)c4ccc(O)c(CC=C(C)C)c4)c(=O)oc3c2C)OC1(C)C	%	90.8
COc1cccc2c1C(=O)c1c(O)c3c(c(O)c1C2=O)CC(O)(C(=O)CO)CC3OC1CC(N)C(O)C(C)O1 (stereo unspecified) + Cc1cccc(N(C)C(=O)C2C(O)CCN2c2nc(C)cc(C(F)(F)F)c2C#N)c1	%	75.8
CNCc1ccc(-c2[nH]c3cc(F)cc4c3c2CCNC4=O)cc1 + Cc1cccc(N(C)C(=O)C2C(O)CCN2c2nc(C)cc(C(F)(F)F)c2C#N)c1	%	106
CCCS(=O)(=O)Nc1ccc(F)c(C(=O)c2c[nH]c3ncc(-c4ccc(Cl)cc4)cc23)c1F + COC1C(OC(N)=O)C(O)C(Oc2ccc3c(O)c(NC(=O)c4ccc(O)c(CC=C(C)C)c4)c(=O)oc3c2C)OC1(C)C	%	116
C=CC(=O)N1CCN(c2nc(=O)n(-c3c(C)ccnc3C(C)C)c3nc(-c4c(O)cccc4F)c(F)cc23)C(C)C1 (stereo unspecified) + Cc1cccc(N(C)C(=O)C2C(O)CCN2c2nc(C)cc(C(F)(F)F)c2C#N)c1	%	85.8
CNCc1ccc(-c2[nH]c3cc(F)cc4c3c2CCNC4=O)cc1 + COC1C(OC(N)=O)C(O)C(Oc2ccc3c(O)c(NC(=O)c4ccc(O)c(CC=C(C)C)c4)c(=O)oc3c2C)OC1(C)C	%	92.6
CC1COCCN1c1cc(-c2ccnn2C)c2ccnc(-c3ccn[nH]3)c2n1 (stereo unspecified) + Nc1ccc(C#CCN(C(=O)Cc2ncc(C(F)(F)F)cc2C(F)(F)F)c2ccc(F)cc2)nn1	%	103
CCCS(=O)(=O)Nc1ccc(F)c(C(=O)c2c[nH]c3ncc(-c4ccc(Cl)cc4)cc23)c1F + Nc1ccc(C#CCN(C(=O)Cc2ncc(C(F)(F)F)cc2C(F)(F)F)c2ccc(F)cc2)nn1	%	103
O=C(c1cc(Cc2n[nH]c(=O)c3ccccc23)ccc1F)N1CCN(C(=O)C2CC2)CC1 + Nc1ccc(C#CCN(C(=O)Cc2ncc(C(F)(F)F)cc2C(F)(F)F)c2ccc(F)cc2)nn1	%	99.3

###

# Test system: 935938-334-R-J1-PDC complex spheroid viability
# Protocol Notes: Anticancer human tumor 935938-334-R-J1-PDC cell line growth inhibition [POLQ];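 note: spheroids exposed to drugs for seven days before viability read; 100% = DMSO vehicle control wells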
# Conditions: second compound 0.1 µM; first compound 0.1 µM; stronger effect = lower value
Class membership depends on viability, T/C alone; the intervals are bottom end (below 80%), midrange (80% to below 90%), top end (90% or more)

Compound	Label Class
O=c1[nH]cc(F)c(=O)[nH]1 + Nc1ccc(C#CCN(C(=O)Cc2ncc(C(F)(F)F)cc2C(F)(F)F)c2ccc(F)cc2)nn1	top end
C#Cc1c(F)ccc2cc(O)cc(-c3ncc4c(N5CC6CCC(C5)N6)nc(OCC56CCCN5CC(F)C6)nc4c3F)c12 (stereo not given) + COC1C(OC(N)=O)C(O)C(Oc2ccc3c(O)c(NC(=O)c4ccc(O)c(CC=C(C)C)c4)c(=O)oc3c2C)OC1(C)C	top end
C#Cc1c(F)ccc2cc(O)cc(-c3ncc4c(N5CC6CCC(C5)N6)nc(OCC56CCCN5CC(F)C6)nc4c3F)c12 (stereo not given) + Nc1ccc(C#CCN(C(=O)Cc2ncc(C(F)(F)F)cc2C(F)(F)F)c2ccc(F)cc2)nn1	midrange
CCc1cc2c(N3CCc4c(cc(Cn5ccnc5)cc4-c4cn(C)nc4C(F)(F)F)C3=O)cc(C)nc2c(OC)n1 + Cc1cccc(N(C)C(=O)C2C(O)CCN2c2nc(C)cc(C(F)(F)F)c2C#N)c1	midrange
COc1cc2cc(C(=O)CCC(=O)O)sc2cc1OC + Cc1cccc(N(C)C(=O)C2C(O)CCN2c2nc(C)cc(C(F)(F)F)c2C#N)c1	midrange
COc1cccc(OCCCN)c1-c1cc(Nc2cnc(C#N)cn2)n[nH]1 + Nc1ccc(C#CCN(C(=O)Cc2ncc(C(F)(F)F)cc2C(F)(F)F)c2ccc(F)cc2)nn1	bottom end
CC1COCCN1c1cc(C2(O)CC3CCC(C2)O3)c2cnn(-c3ccn[nH]3)c2n1 (stereo not given) + Nc1ccc(C#CCN(C(=O)Cc2ncc(C(F)(F)F)cc2C(F)(F)F)c2ccc(F)cc2)nn1	bottom end
CNCc1ccc(-c2[nH]c3cc(F)cc4c3c2CCNC4=O)cc1 + COC1C(OC(N)=O)C(O)C(Oc2ccc3c(O)c(NC(=O)c4ccc(O)c(CC=C(C)C)c4)c(=O)oc3c2C)OC1(C)C	top end
C#Cc1c(F)ccc2cc(O)cc(-c3ncc4c(N5CC6CCC(C5)N6)nc(OCC56CCCN5CC(F)C6)nc4c3F)c12 (stereo not given) + Cc1cccc(N(C)C(=O)C2C(O)CCN2c2nc(C)cc(C(F)(F)F)c2C#N)c1	bottom end
CC1COCCN1c1cc(C2(O)CC3CCC(C2)O3)c2cnn(-c3ccn[nH]3)c2n1 (stereo not given) + COC1C(OC(N)=O)C(O)C(Oc2ccc3c(O)c(NC(=O)c4ccc(O)c(CC=C(C)C)c4)c(=O)oc3c2C)OC1(C)C	bottom end
CCc1cc2c(N3CCc4c(cc(Cn5ccnc5)cc4-c4cn(C)nc4C(F)(F)F)C3=O)ccnc2c(OC)n1 + Nc1ccc(C#CCN(C(=O)Cc2ncc(C(F)(F)F)cc2C(F)(F)F)c2ccc(F)cc2)nn1	bottom end
O=C(Nc1ccc(O)c(NS(=O)(=O)c2ccc(F)cc2)c1)c1ccc(-c2ccccc2)cc1 + COC1C(OC(N)=O)C(O)C(Oc2ccc3c(O)c(NC(=O)c4ccc(O)c(CC=C(C)C)c4)c(=O)oc3c2C)OC1(C)C	top end
CC1COCCN1c1cc(-c2ccnn2C)c2ccnc(-c3ccn[nH]3)c2n1 (stereo not given) + Cc1cccc(N(C)C(=O)C2C(O)CCN2c2nc(C)cc(C(F)(F)F)c2C#N)c1	bottom end
C=CCn1c(=O)c2cnc(Nc3ccc(N4CCN(C)CC4)cc3)nc2n1-c1cccc(C(C)(C)O)n1 + COC1C(OC(N)=O)C(O)C(Oc2ccc3c(O)c(NC(=O)c4ccc(O)c(CC=C(C)C)c4)c(=O)oc3c2C)OC1(C)C	top end
CC(C)n1c(=O)n(C)c2cnc3cc(F)c(-c4ccc(OCCCN5CCCCC5)nc4)cc3c21 + Cc1cccc(N(C)C(=O)C2C(O)CCN2c2nc(C)cc(C(F)(F)F)c2C#N)c1	midrange
COc1cc(C2c3cc4c(cc3C(OC3OC5COC(C)OC5C(O)C3O)C3COC(=O)C23)OCO4)cc(OC)c1O (stereo not given) + Cc1cccc(N(C)C(=O)C2C(O)CCN2c2nc(C)cc(C(F)(F)F)c2C#N)c1	top end
Nc1ccn(C2OC(CO)C(O)C2(F)F)c(=O)n1 (stereo not given) + COC1C(OC(N)=O)C(O)C(Oc2ccc3c(O)c(NC(=O)c4ccc(O)c(CC=C(C)C)c4)c(=O)oc3c2C)OC1(C)C	bottom end
C=CC(=O)N1CCN(c2nc(=O)n(-c3c(C)ccnc3C(C)C)c3nc(-c4c(O)cccc4F)c(F)cc23)C(C)C1 (stereo not given) + Cc1cccc(N(C)C(=O)C2C(O)CCN2c2nc(C)cc(C(F)(F)F)c2C#N)c1	top end
